target: human sphingosine-1-phosphate receptor 1 (S1P1) (Homo sapiens (Human), UniProt P21453); assay: β-Arrestin2 recruitment assay (PathHunter), S1P1 CHO-K1 cells; format: cell-based; conditions: β-arrestin2 recruitment, S1P1 CHO-K1 cells
Sequence (P21453 whole entry, looked up): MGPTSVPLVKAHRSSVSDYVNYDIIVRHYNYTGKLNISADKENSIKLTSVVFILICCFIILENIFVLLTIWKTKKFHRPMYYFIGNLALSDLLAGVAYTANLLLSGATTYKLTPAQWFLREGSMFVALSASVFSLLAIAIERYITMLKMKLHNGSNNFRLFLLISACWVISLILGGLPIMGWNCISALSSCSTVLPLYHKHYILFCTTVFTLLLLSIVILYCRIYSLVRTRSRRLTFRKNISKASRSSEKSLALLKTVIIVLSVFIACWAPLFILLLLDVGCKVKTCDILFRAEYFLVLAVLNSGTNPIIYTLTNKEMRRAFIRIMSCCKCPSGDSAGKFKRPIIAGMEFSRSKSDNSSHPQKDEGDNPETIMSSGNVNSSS
Sequence (P32121 whole entry partner, looked up): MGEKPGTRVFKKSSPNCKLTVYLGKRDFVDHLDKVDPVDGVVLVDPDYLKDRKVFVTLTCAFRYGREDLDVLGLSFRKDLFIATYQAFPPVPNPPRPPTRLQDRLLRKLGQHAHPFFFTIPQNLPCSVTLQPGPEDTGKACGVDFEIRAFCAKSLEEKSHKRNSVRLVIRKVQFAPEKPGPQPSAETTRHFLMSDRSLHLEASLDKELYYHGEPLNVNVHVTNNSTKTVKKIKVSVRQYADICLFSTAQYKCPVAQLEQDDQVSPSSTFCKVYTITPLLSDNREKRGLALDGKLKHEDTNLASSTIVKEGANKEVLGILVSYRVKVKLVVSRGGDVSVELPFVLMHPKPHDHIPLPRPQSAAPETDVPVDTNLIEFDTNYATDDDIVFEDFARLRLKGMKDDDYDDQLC
Provide the reported hS1P1 B-arrestin2 pEC50 of each item.

Consider the reported hS1P1 B-arrestin2 pEC50 for these compounds:
CCC1(CC)CC(=O)c2cc(-c3nc(-c4cccnc4C)no3)ccc2O1 : >5
CCC1(CC)CC(=O)c2cc(-c3ncc(-c4ccnc(O)c4)cn3)ccc2O1 : <5
CCCCC1(CCCC)CC(=O)c2cc(-c3nc(-c4cccnc4)no3)ccc2O1 : <5
N#Cc1cc(-c2nnc(-c3ccc4c(c3)CCC(=O)N4)o2)ccc1NCCF : >5
CC(C)Nc1ccc(-c2nc(-c3ccc4oc(=O)[nH]c4c3)no2)cc1C#N : >5

Lab note: each compound below needs its hS1P1 B-arrestin2 pEC50 filled in.
1. CCC1(CC)CC(=O)c2cc(-c3ncc(-c4ccncc4)cn3)ccc2O1
2. CC(C)n1nnc2cc(-c3nc(-c4cccc5c4OCCC5)no3)ccc21
3. CC(C)Oc1ccc(-c2nc(-c3ccc4c(c3)nnn4C(C)C)no2)cc1C(F)(F)F

1: >5; 2: >5; 3: >5

* * *

target: human sphingosine-1-phosphate receptor 1 (S1P1) (Homo sapiens (Human), UniProt P21453); assay: β-Arrestin2 recruitment assay (PathHunter), S1P1 CHO-K1 cells; type: cell-based; conditions: β-arrestin2 recruitment, S1P1 CHO-K1 cells
Measured endpoint: hS1P1 B-arrestin2 pEC50

Consider the reported hS1P1 B-arrestin2 pEC50 for these molecules:
CC(C)n1nnc2cc(-c3nc(-c4ccc5nncn5c4)no3)ccc21 : <5
O=C1c2cc(-c3nc(-c4cccnc4)no3)ccc2OC(CO)(CO)C1Br (stereo not drawn) : <5
CC(C)n1nnc2cc(-c3noc(-c4cccc(F)c4)n3)ccc21 : <5
CC(C)n1ccc2cc(-c3nc(-c4cccc5c4OCCC5)no3)ccc21 : >5
Fc1cc(-c2noc(-c3ccc4c(c3)nnn4C3CCCC3)n2)ccc1C(F)(F)F : <5

Lab note: each molecule below needs its hS1P1 B-arrestin2 pEC50 filled in.
1. Cc1cccc2nc(-c3ccc4c(c3)nnn4CC(C)C)oc12
2. Cc1ccc(-c2noc(-c3ccc4c(c3)nnn4C3CC3)n2)cn1
3. COc1ccccc1-c1csc(-c2ccc3c(ccn3C(C)C)n2)n1
4. Cc1cc(-c2nc(-c3ccc4c(c3)nnn4C(C)C)no2)cc(C)n1
5. CCC1(CC)C/C(=N\O)c2cc(-c3nc(-c4cccnc4)no3)ccc2O1
6. COc1ccc(-c2nc(-c3ccc4c(c3)nnn4C(C)C)no2)cc1

1: <5; 2: <5; 3: <5; 4: >5; 5: <5; 6: >5

Lab note: each molecule below needs its hS1P1 B-arrestin2 pEC50 filled in.
1. N#Cc1cc(-c2nc(-c3ccc4c(c3)CCC(=O)N4)no2)ccc1NCC1CC1
2. CC(C)n1nnc2cc(-c3nc(-c4ccccc4F)co3)ccc21
3. COc1cccc(F)c1-c1noc(-c2ccc3c(cnn3C(C)C)c2)n1
4. CCC1(CC)CC(=O)c2cc(-c3nsc(-c4ccccc4OC)n3)ccc2O1
5. CCC1(CC)CC(=O)c2cc(-c3nc(-c4ccc5c(c4)CCC(=O)N5)no3)ccc2O1
6. C=CCNc1ccc(-c2nc(-c3ccc4sc(N)nc4c3)no2)cc1C#N
7. C=CCNc1ccc(-c2nc(-c3ccc4[nH]cnc4c3)no2)cc1C#N

1. >5
2. <5
3. <5
4. >5
5. <5
6. >5
7. >5

* * *

molecular target: human sphingosine-1-phosphate receptor 1 (S1P1) (Homo sapiens (Human), UniProt P21453); test: β-Arrestin2 recruitment assay (PathHunter), S1P1 CHO-K1 cells; assay type: cell-based; settings: β-arrestin2 recruitment, S1P1 CHO-K1 cells
Measured endpoint: hS1P1 B-arrestin2 pEC50

Lab note: each compound below needs its hS1P1 B-arrestin2 pEC50 filled in.
1. CC(C)n1nnc2cc(-c3noc(-c4ccccc4N(C)C)n3)ccc21 [Compound 615]
2. CC(C)n1nnc2cc(-c3ncc(-c4ccccc4F)s3)ccc21 [Compound 63]
3. COC(=O)NS(=O)(=O)n1c(=O)oc2cc(-c3nnc(-c4ccccc4OC)o3)ccc21 [Compound 342]
4. Cc1ccccc1C(C)c1noc(-c2ccc3c(c2)nnn3CC(C)C)n1 (stereo not drawn) [Compound 154]
5. Clc1ncccc1-c1noc(-c2ccc3c(c2)nnn3CC2CC2)n1 [Compound 199]
6. CCC1(CC)CC(=O)c2cc(-c3nc(-c4ccc(C(=O)NC)cc4)no3)ccc2O1 [Compound 185]

1: >5; 2: <5; 3: <5; 4: <5; 5: <5; 6: >5

Lab note: each compound below needs its hS1P1 B-arrestin2 pEC50 filled in.
1. CCC1(CC)CC(=O)c2cc(-c3nsc(-c4cccnc4)n3)ccc2O1 [Compound 137]
2. CC(F)(F)CNc1ccc(-c2nnc(-c3ccc4[nH]cnc4c3)o2)cc1C#N [Compound 520]
3. Cc1cc(C)cc(Cc2noc(-c3ccc4c(c3)nnn4C(C)C)n2)c1 [Compound 126]

1: <5; 2: >5; 3: <5

* * *

Provide the reported hS1P1 cAMP pEC50 of each item.
target: human sphingosine-1-phosphate receptor 1 (S1P1) (Homo sapiens (Human), UniProt P21453); assay: Inhibition of cAMP production (HTRF cAMP HiRange), S1P1 CHO-K1 cells; format: cell-based; settings: inhibition of cAMP production, S1P1 CHO-K1 cells
Sequence (P21453 whole entry, looked up): as the sequence (P21453 whole entry, looked up) above

Consider the reported hS1P1 cAMP pEC50 for these compounds:
CCC1(CC)CC(=O)c2cc(-c3nc(-c4ccnc(C(N)=O)c4)no3)ccc2O1 [Compound 555] : >6.5
COc1ccccc1-c1nnc(-c2ccc3c(c2)nnn3C(C)C)o1 [Compound 35] : <6.5
CC(C)n1ccc2cc(-c3noc(-c4ccccn4)n3)ccc21 [Compound 397] : <6.5
O=C1CC2(CCCC2)Oc2ccc(-c3nc(-c4cccnc4)no3)cc21 [Compound 298] : <6.5

Lab note: each compound below needs its hS1P1 cAMP pEC50 filled in.
1. CC(C)Nc1ccc(-c2nc(-c3ccc4c(c3)NC(=O)CC4)no2)cc1C#N [Compound 435]
2. CSc1ccccc1-c1nc(-c2ccc3c(c2)nnn3C2CCCC2)no1 [Compound 16]
3. COc1cccc(-c2cnc(-c3ccc4c(c3)nnn4C(C)C)s2)c1 [Compound 108]

[">6.5", "<6.5", ">6.5"]

Lab note: each compound below needs its hS1P1 cAMP pEC50 filled in.
1. CC(C)n1nnc2cc(-c3noc(-c4ccccc4C#N)n3)ccc21 [Compound 279]
2. CCC1(CC)CC(=O)c2cc(-c3nc(-c4ccc5c(c4)CCC(=O)N5)no3)ccc2O1 [Compound 415]
3. C=CCNc1ccc(-c2ccc(-c3ccc4c(c3)nnn4C(C)C)cc2)cc1C#N [Compound 508]
4. CC(C)n1nnc2cc(-c3nc(-c4nccn4C)no3)ccc21 [Compound 569]
5. Cc1ccccc1-c1noc(-c2ccc3c(c2)nnn3C2CC2)n1 [Compound 171]
6. COc1ccccc1-c1noc(-c2ccc3c(cnn3C(C)C)c2)n1 [Compound 370]
7. CC(C)(CO)n1nnc2cc(-c3noc(-c4cccnc4F)n3)ccc21 [Compound 643]
8. CCC1(CC)CC(=O)c2cc(-c3nsc(-c4ccccc4OC)n3)ccc2O1 [Compound 222]

1. <6.5
2. >6.5
3. <6.5
4. <6.5
5. >6.5
6. >6.5
7. <6.5
8. <6.5

* * *

target: human sphingosine-1-phosphate receptor 2 (S1P2) (Homo sapiens (Human)); assay: Inositol monophosphate production (IP-one TB kit), S1P2 CHO-K1 cells; type: cell-based; conditions: CHO-K1; efficacy normalized to CYM5520; read-out: hS1P2 IP-one SPAN
Sequence (O95136 whole entry): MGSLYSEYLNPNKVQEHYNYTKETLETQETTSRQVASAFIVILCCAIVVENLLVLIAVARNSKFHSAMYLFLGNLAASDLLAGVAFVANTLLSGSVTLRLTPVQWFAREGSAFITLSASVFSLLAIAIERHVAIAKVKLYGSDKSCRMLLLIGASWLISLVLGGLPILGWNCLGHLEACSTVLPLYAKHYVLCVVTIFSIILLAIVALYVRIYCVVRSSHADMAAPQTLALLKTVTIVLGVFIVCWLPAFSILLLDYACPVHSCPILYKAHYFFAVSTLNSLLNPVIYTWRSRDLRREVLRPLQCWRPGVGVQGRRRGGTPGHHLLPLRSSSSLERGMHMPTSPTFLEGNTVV
Measured endpoint: Emax

CCC1(CC)CC(=O)c2cc(-c3nc(-c4cccnc4)no3)ccc2O1 [Compound 103] : < 50%

Lab note: each compound below needs its Emax filled in.
1. CC(C)Nc1ccc(-c2nc(-c3ccc4c(c3)CCC(=O)N4)no2)cc1C#N [Compound 259]
2. C=CCNc1ccc(-c2nc(-c3ccc(NS(C)(=O)=O)cc3)no2)cc1C#N [Compound 149]

< 50%
< 50%

* * *

molecular target: human sphingosine-1-phosphate receptor 1 (S1P1) (Homo sapiens (Human)); assay: Inhibition of cAMP production (HTRF cAMP HiRange), S1P1 CHO-K1 cells; type: cell-based; conditions: CHO-K1; efficacy (SPAN) normalized to fingolimod; read-out: hS1P1 cAMP SPAN
Measured endpoint: Emax

Consider the reported Emax for these compounds:
COc1ccccc1-c1noc(-c2ccc3c(c2)nnn3C2CCOCC2)n1 : < 75%
CC(C)n1nnc2cc(-c3nc(-c4ccccc4Cl)co3)ccc21 : > 75%
Cc1cc(-c2noc(-c3ccc4c(c3)nnn4CC(C)(C)O)n2)c(C)o1 : > 75%
CC(C)n1nnc2cc(-c3nc(-c4ccncc4)no3)ccc21 : > 75%

Reported Emax, compound COc1ccc(-c2noc(-c3ccc4c(c3)nnn4C(C)C)n2)c2ccccc12 : ____ < 75%
